target: UniProtKB P21554; assay: Displacement of [3H]CP-55940 from human recombinant CB1 receptor expressed in HEK293 cell membrane; assay type: cell membranes
Sequence (P21554 whole entry): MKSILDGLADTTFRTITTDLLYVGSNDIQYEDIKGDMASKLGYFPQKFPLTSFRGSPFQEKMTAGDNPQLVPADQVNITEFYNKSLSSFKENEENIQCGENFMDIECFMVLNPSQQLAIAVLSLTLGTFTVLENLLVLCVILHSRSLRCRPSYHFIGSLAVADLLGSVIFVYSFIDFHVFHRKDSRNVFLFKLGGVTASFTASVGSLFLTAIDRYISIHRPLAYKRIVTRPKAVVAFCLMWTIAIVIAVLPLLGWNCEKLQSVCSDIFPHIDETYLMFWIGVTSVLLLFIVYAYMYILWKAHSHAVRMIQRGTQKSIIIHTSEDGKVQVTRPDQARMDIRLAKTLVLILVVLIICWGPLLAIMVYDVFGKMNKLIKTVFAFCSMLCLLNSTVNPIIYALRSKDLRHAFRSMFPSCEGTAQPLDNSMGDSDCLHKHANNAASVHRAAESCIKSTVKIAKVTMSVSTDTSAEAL
pKi: −log10 of the molar value.
readout kind: pKi

Guide cases for pKi, answers given:
CCCCCCCCCCCCCCCC(=O)N[C@@H]1C[C@@H]1O (racemic) = < 5.00
CCCCCCCCCCCCCCCC(=O)NCCO = < 5.30

Would you kindly look at the next entry?
Quick one: pKi for CCCCCCCCCCCCCCCC(=O)N[C@@H]1C[C@H]1O (racemic) ?
< 5.00

* * *

Measured log10 of EC50 accompanies every entry in the list below.
molecular target: Transient receptor potential cation channel subfamily V member 1 (Homo sapiens, UniProt Q8NER1); assay: Agonist activity at human recombinant TRPV1 expressed in HEK293 cells assessed as increase in intracellular calcium level
Sequence (Q8NER1 whole entry): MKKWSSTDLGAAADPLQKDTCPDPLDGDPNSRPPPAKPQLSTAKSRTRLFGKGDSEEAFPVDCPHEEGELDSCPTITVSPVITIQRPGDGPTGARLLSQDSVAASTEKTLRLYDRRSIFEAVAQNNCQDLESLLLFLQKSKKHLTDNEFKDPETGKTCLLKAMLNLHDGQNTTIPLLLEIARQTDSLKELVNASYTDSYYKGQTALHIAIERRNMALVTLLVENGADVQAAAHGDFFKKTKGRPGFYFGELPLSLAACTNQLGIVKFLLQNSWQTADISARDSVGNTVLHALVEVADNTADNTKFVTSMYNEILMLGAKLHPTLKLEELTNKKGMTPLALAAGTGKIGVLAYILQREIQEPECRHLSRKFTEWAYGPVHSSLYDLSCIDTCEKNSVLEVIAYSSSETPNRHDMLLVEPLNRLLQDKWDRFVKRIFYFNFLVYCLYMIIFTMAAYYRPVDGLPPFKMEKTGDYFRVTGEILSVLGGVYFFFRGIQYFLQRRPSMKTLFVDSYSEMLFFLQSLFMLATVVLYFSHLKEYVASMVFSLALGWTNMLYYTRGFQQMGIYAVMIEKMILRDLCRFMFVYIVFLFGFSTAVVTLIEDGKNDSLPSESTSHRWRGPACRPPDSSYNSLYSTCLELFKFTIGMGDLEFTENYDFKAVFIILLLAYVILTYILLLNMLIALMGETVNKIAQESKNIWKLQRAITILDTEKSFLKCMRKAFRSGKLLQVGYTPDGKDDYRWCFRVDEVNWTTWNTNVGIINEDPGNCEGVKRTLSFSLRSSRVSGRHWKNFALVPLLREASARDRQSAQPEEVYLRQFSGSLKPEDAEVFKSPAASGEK
Plainly stated, the numbers are log10 of EC50 given in µM.

CCCCCCCC/C=C\CCCCCCCC(=O)N[C@@H]1C[C@@H]1O = -0.82

log10 of EC50 for CCCCC/C=C\C/C=C\C/C=C\C/C=C\CCCC(=O)N[C@H]1C[C@H]1O ?
0.38

Query (compound): CCCCC/C=C\C/C=C\C/C=C\C/C=C\CCCC(=O)N[C@@H]1C[C@H]1O ; field requested: log10 of EC50
-1.64

Using the record for CCCCC/C=C\C/C=C\C/C=C\C/C=C\CCCC(=O)NCCO [ANANDAMIDE] , report its log10 of EC50.
-0.70

State the recorded log10 of EC50 for this entry: CCCCCCCC/C=C\CCCCCCCC(=O)N[C@@H]1C[C@@H]1O (racemic)
0.57

log10 of EC50 lookup needed for CCCCCCCC/C=C\CCCCCCCC(=O)N[C@@H]1C[C@H]1O , thanks.
-1.89

Dear colleague, I am looking for the recorded log10 of EC50 of the following compound: CCCCC/C=C\C/C=C\C/C=C\C/C=C\CCCC(=O)N[C@@H]1C[C@@H]1O
-0.21

Any idea what its log10 of EC50 is? The compound is CCCCC/C=C\C/C=C\C/C=C\C/C=C\CCCC(=O)N[C@@H]1C[C@H]1O (racemic)
-1.30

Consider the compound CCCCCCCC/C=C\CCCCCCCC(=O)N[C@@H]1C[C@H]1O (racemic) and give its measured log10 of EC50.
-1.22

GET /values?readout=log10 of EC50&item= CCCCC/C=C\C/C=C\C/C=C\C/C=C\CCCC(=O)N[C@@H]1C[C@@H]1O (racemic)
0.28
